# Test details: sensitizers of A549 cells to miR-34 induction, primary screen, imaging, A549 dox-inducible miR-34, nuclei and caspase counts (AID 1347080); further: test concentration not given here
# Test settings: A549 miR-34 inducible, Hoechst nuclei count, 48 h; stronger effect = lower value; cell number ratio, induced over uninduced
Activity calls are given as the source filed them.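 How the source made its calls: active means compounds whose cell count with miR-34 switched on is under 0.7 times the count with it off; inactive means the rest.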
fold change listing for selected compounds.

[[record]]
compound = "CCNC(=O)[C@H]1O[C@@H](n2cnc3c(N)ncnc32)[C@@H](O)C1O (stereo not given in full)"
result = "0.967 (inactive)"

[[record]]
compound = "COc1cc(/C=C\\c2ccc(OC)c(O)c2)cc(OC)c1"
result = "0.917 (inactive)"

[[record]]
compound = "c1cc2ccc(N3CCNCC3)cc2cn1"
result = "0.985 (inactive)"


Reported fold change ( COC1CCC2NC(C(=O)c3ccccc3)CC2C1 (stereo not given) ) = 1.14 (inactive)

The compound listed as CN=C(NS(=O)(=O)c1ccc(Cl)cc1)N1C[C@@H](c2ccccc2)C(c2ccc(Cl)cc2)=N1 has a reported fold change of 0.663 (active)

# fold change (compound: C=C(C)[C@@H]1CCC(C)=C[C@H]1c1c(C)cc(O)cc1O ) is 0.943 (inactive)

Entry C=C(C)[C@H]1CN[C@H](C(=O)O)[C@H]1CC(=O)O — recorded fold change = 0.95 (inactive)

Looking up CCN1C[C@@]2(COC)C3[C@@H](OC)[C@H]4[C@H]1C3([C@@H]1C[C@@]3(O)[C@H](OC(=O)c5ccccc5)[C@@H]1[C@]4(OC(C)=O)[C@@H](O)[C@@H]3OC)[C@H](OC)C[C@H]2O , I found its fold change recorded as 0.989 (inactive)

The recorded fold change for CCC(N)C(O)c1ccc(O)c(O)c1 (stereo not given) is 0.787 (inactive)

Given item COC1CCC(OC2C[C@H]([C@]3(C)CC[C@]4(CC(O)C(C)[C@@H](C(C)C=C(C)C(=O)C(C)CC(C)C(=O)O)O4)O3)O[C@]3(O[C@@H]([C@H]4O[C@@](O)(CO)C(C)CC4C)CC3C)C2C)OC1C (stereo not given in full) , the value recorded as its fold change is 0.953 (inactive)

* * *

# Test details: sensitizers of A549 cells to miR-34 induction, primary screen, imaging, A549 dox-inducible miR-34, nuclei and caspase counts (AID 1347080); further: test concentration not given here
# Test settings: A549 miR-34 inducible, Hoechst nuclei count, 48 h; measured here: total cells with miR-34 induction; stronger effect = lower value
Doc: threshold 6000 (exclusive). Items with cell count beneath it return condition met; others return condition not met.

See these solved cases before continuing.
[[record]]
molecule = "CCCCCC[C@H]1C(=O)O[C@H](C)C(NC(=O)c2cccc(NC=O)c2O)C(=O)O[C@@H](C)[C@@H]1OC(=O)CC(C)C (stereo partly drawn)"
cat = "condition met"

[[record]]
molecule = "Cc1ccc(C(C)Nc2ncnc3sccc23)cn1 (stereo not drawn)"
cat = "condition met"

[[record]]
molecule = "C[C@]12CC[C@@H](O)C[C@@H]1CC[C@@H]1[C@@H]2CC[C@]2(C)C(=O)CC[C@@H]12"
cat = "condition not met"


## Input State whether 6000 exceeds cell count recorded for CCCN1CC[C@@H]2c3cc(O)ccc3CC[C@@H]21 .
## Output condition not met

## Input API: query returns whether the molecule falls strictly under 6000 in cell count. Query: CC(=O)O[C@H]1C[C@H](O[C@H]2[C@@H](O)C[C@H](O[C@H]3[C@@H](O)C[C@H](O[C@H]4CC[C@@]5(C)[C@H](CC[C@]6(C)[C@]5(C)C[C@@H](O)[C@]5(C)[C@@H](C7=CC(=O)OC7)CC[C@@]56O)C4)O[C@@H]3C)O[C@@H]2C)O[C@H](C)[C@H]1O[C@@H]1O[C@H](CO)[C@@H](O)[C@H](O)[C@H]1O
## Output condition met

## Input Take the molecule CCCN[C@@H]1CCc2c(OC)cccc2[C@@H]1C and say whether its cell count is less than 6000.
## Output condition not met

## Input Determine whether this molecule shows cell count lower than 6000 (ties excluded): CCNC(=O)[C@H]1O[C@@H](n2cnc3c(N)ncnc32)[C@H](O)[C@@H]1O
## Output condition not met

## Input Say whether its cell count is strictly beneath 6000. Entry: CCCCCCC(=O)O[C@H]1CC[C@H]2[C@@H]3C[C@@H](O)C4=CC(=O)CC[C@]4(C)[C@H]3CC[C@]12C
## Output condition met

## Input Determine if CC(=O)NC1CCSC1=O (stereo not drawn) shows cell count strictly lower than 6000.
## Output condition not met

## Input Bench note: check whether CCCC(C)C1(CC)C(=O)NC(=O)NC1=O (stereo not drawn) shows cell count below 6000
## Output condition not met

## Input Identify whether the molecule C[C@H]1O[C@H](OC2[C@@H](O)[C@@H](O)C(O)[C@H](O)[C@H]2O)[C@@H](N)C[C@@H]1N=C(N)C(=O)O (stereo partly drawn) records cell count below 6000.
## Output condition not met
